assay.target: T1, MBP-RAMP1 ECD-(GS)5-CLR ECD-H6 fusion protein (human, UniProt O60894 24-111; Q16602 29-144)
T1 construct: range 24-111;range 29-144; Tethered ECD fusion made in E. coli; used in the FP assay at 15 nM; also called MBP-hRAMP1.24-111-(Gly-Ser)5-hCLR.29-144-H6
T1 sequence (O60894 other isoform, or with tags, fused parts or gaps limits assumed, form in doubt): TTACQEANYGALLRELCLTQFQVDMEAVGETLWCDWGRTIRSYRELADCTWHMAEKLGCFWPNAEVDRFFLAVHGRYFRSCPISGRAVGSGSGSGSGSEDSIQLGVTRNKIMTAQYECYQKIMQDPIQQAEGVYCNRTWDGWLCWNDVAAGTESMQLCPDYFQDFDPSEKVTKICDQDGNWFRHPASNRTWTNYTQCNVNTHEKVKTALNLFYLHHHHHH
experiment.description: FP competition vs FITC-AM W/W probe, purified ECD fusion
Where no end group is shown, it is not given here.
Form field: Ki (one value per entry).
test.readout: Ki

* FVPTDVGPWAF-NH2 [CGRP(27-37)NH2 [N31D, S34P, K35W]] | 8.13 nM
* DKDNVAPRWMISPWGF-NH2 [AM(37-52)NH2 [S45W, K46M, Q50W, Y52F]] | 7.94 nM
* FVPTDTGPWGF-NH2 [CGRP(27-37)NH2 [N31D, V32T, S34P, K35W, A36G]] | 6.85 nM
